Recorded measurements of glycan array binding signal (z-score), one per entry
# tested on: GlcNAc(b1-4)GlcNAc
# assay: glycan array binding signal (z-score within array); higher = stronger binding
# condition description: glycan notation: IUPAC condensed, linker removed
The full list was thinned out, with the strongest signals kept by preference.
quantity kind: glycan array binding signal (z-score)

Epa7 (Candida glabrata), Q6DTM6_CANGB (protein) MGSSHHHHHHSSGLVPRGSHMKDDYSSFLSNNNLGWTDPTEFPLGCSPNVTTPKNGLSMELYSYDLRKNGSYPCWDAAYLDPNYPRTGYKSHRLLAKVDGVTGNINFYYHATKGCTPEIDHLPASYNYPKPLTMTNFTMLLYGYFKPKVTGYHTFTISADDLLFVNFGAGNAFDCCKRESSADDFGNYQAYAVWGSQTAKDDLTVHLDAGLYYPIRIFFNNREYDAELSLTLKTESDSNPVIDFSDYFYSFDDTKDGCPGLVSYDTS    -0.23
Spy 2007 (Streptococcus pyogenes), Q99XV3 (protein) MKKGFFLMAMVVSLVMIAGCDKSANPKQPTQGMSVVTSFYPMYAMTKEVSGDLNDVRMIQSGAGIHSFEPSVNDVAAIYDADLFVYHSHTLEAWARDLDPNLKKSKVDVFEASKPLTLDRVKGLEDMEVTQGIDPATLYDPHTWTDPVLAGEEAVNIAKELGRLDPKHKDSYTKNAKAFKKEAEQLTEEYTQKFKKVRSKTFVTQHTAFSYLAKRFGLKQLGISGISPEQEPSPRQLKEIQDFVKEYNVKTIFAEDNVNPKIAHAIAKSTGAKVKTLSPLEAAPSGNKTYLENLRANLEVLYQQLK    -0.446
